Just for reference, ChEMBL document CHEMBL1201862 is where these values come from.

Form field: GI50 (one value per entry).
tested on: K562; test: NCI tumour cell line growth inhibition, 48 h
The source made the active and inactive calls. No stated cut-off is given here; in the data, active = GI50 up to about 1.1 µM and inactive = higher.

Give GI50 for this entry on K562: FC(F)(F)c1ccc2nc(Sc3ccccn3)cnc2c1 51.4 µM (inactive)

Retrieve GI50 on K562; query CC1=C(Nc2c(C)cc(O)cc2O)C(=O)C=c2oc3c(c21)C(C)=C(Nc1c(C)cc(O)cc1O)C(=O)C=3 34 µM (inactive)

Please indicate recorded GI50 of C(=C\c1c2oc(-c3ccccc3)cc(-c3ccccc3)c-2c2ccccc12)/C=C1\c2ccccc2-c2c(-c3ccccc3)cc(-c3ccccc3)[o+]c21.[O-][Cl+3]([O-])([O-])[O-] measured with K562. > 100 µM (inactive)

New cases:
For K562, give the measured GI50 of the entry CC1=CC=C2c3ccccc3C=CN2C(=O)C1 37.8 µM (inactive)

Determine reported GI50 for CCOC(=O)NC/C=C/COC1CCCCO1 (stereo not given) ; test system: K562. > 100 µM (inactive)

----------
tested on: SN12C; test: NCI tumour cell line growth inhibition, 48 h
Activity calls are given as the source filed them. Cut-off read from the data, not from the text of the source: active = GI50 up to about 1.1 µM and inactive = higher.
Pick one: active, inactive

These recorded examples may help you get a feel for the data.
What classification did CN(Cc1cnc2nc(N)nc(N)c2n1)c1ccc(C(=O)NCCS(=O)(=O)O)cc1 end up with in this test? inactive

Test call for this compound, please: O=C(/C=C/c1ccc(Cl)c(Cl)c1)c1ccc2ccccc2c1 inactive

Per the records of this test, what outcome belongs to CN1CCC23c4c5ccc(Oc6nnnn6-c6ccccc6)c4OC2c2[nH]c4ccccc4c2CC3(O)C1C5 (stereo not given) ? inactive

// outcome(item) with item = COC(=O)C1C=CCON2CCc3c(n(S(=O)(=O)c4ccccc4)c4ccccc34)C12 (stereo not given) inactive

Could you please tell me the result logged for Cc1cccc(/C=N/NC(=S)N2CCCCCC2)n1 in this assay? active

Next:
I'd appreciate the recorded outcome for O=C1CSC(/C=C/c2ccccc2)N1c1nc2cc3sc(N4C(=O)CSC4/C=C/c4ccccc4)nc3cc2s1 (stereo not given) from this test. inactive

# lookup: test call for NC(Cc1cc(Br)c(O)c(Br)c1)C(=O)O (stereo not given) inactive

What outcome does the record of this test show for COc1ccc(C(=C(C#N)C#N)c2ccc(OC)cc2)cc1 ? inactive

Which outcome did this test record for the compound CC(C)c1ccc(O)c(Cc2cc(C(C)C)cc(Cc3cc(C(C)C)ccc3O)c2O)c1 ? inactive

Look up the recorded call for C=CC(C)(C)C1(CC(OC)OC)C(=O)N(C)c2ccccc21 (stereo not given) in this test. inactive

Would you mind telling me which call this test gave CC1=C2CN(C(=O)OCC(C)C)CCC2C2=C(C(=O)c3ccccc3C2=O)C1C (stereo not given) ? inactive

# lookup: test call for COC(=O)c1ccccc1N(C(=O)c1ccccc1)c1ccccc1C inactive

Could you check what this test reported for OC(C1CO1)C(O)C1CO1 (stereo not given) ? inactive

How was CC[N+](C)(CC)CCN1C(=O)c2ccccc2S1(=O)=O classified in this test? inactive

----------
GI50 overview
test system: PC-3; experiment: NCI tumour cell line growth inhibition, 48 h
Active and inactive are the calls of the source. Rule as the data show it: active = GI50 up to about 1.1 µM and inactive = higher.

Complete the entry with GI50 for CCC(=O)NC(Nc1cccc(F)c1)(C(F)(F)F)C(F)(F)F > 100 µM (inactive)

Give the reported GI50 for this molecule. O=C(c1ccc(Cl)cc1)N(C(=S)OCCOc1ccccc1)c1ccccc1 21.1 µM (inactive)

Assign GI50 to the following record: FC(F)(F)c1cc(N(C2c3ccccc3C=Cc3ccccc32)P(Cl)Cl)cc(C(F)(F)F)c1 22.7 µM (inactive)

Kindly indicate its recorded GI50. Item: CCOC(=O)C(C(=O)OCC)=C1SC(=N\c2ccccc2)/C(=N/c2ccccc2)N1c1ccccc1 58.7 µM (inactive)
